Tested on: Trypanosoma cruzi
Assay: Antitrypanosomal activity against epimastigote forms of Trypanosoma cruzi Y assessed as growth inhibition
Format: functional, organism-based
measured property: IC50 (nM)
One number for each entry, in nM.

[in] # query: IC50 of entry CCC1SC(N/N=C/CCSc2ccccc2)=NC1=O (stereo unspecified)
[out] 300

###

Test system: Trypanosoma brucei rhodesiense
Experiment: Antitrypanosomal activity against Trypanosoma brucei rhodesiense assessed as growth inhibition
Type: functional
Details: read-out: ED50 (the source's name)
measured property: EC50 (nM)
Give bare numbers, in nM.

[in] Given NC(=S)N/N=C(\C=C\c1ccccc1)c1ccccc1 , state its recorded EC50.
[out] 70

###

Tested on: Trypanosoma cruzi
Experiment: Antitrypanosomal activity against Trypanosoma cruzi assessed as growth inhibition
Assay type: functional
Conditions: read-out: ED50 (the source's name)
measured property: EC50 (µM)
Numbers only, in µM.

[in] Give the measured EC50 of CCCC/C(=N\NC(N)=S)c1ccccc1 .
[out] 3
